testTarget: T1, recombinant human DLL4 (Cat# 1506-D4/CF, R&D Systems) (human, UniProt Q9NR61 27-529)
T1 construct: Bought protein; also called hDLL4; rHuman DLL4
measurementNotes: ELISA, DLL4 coated, Fab 100 nM
Below is a list of entries, each paired with its recorded ELISA absorbance at 450 nm value.
Quick reminder: number only, in A450, skip the unit.

For orientation, consider the following solved cases.
{"binder": "Fab VH5-51_IGHD5-18*01>3_IGHJ4*01 G100K/G104T G24T/S28R/G35V & V3-4_IGLJ1*01 V91L/S96P S52K (Fab, V domains shown, Fab made in E. coli: VH on CH1 with His6 and Flag tags (Plasmid A), VL on lambda CL (Plasmid E); also called H: KT TRV & L: LP S52K) VH: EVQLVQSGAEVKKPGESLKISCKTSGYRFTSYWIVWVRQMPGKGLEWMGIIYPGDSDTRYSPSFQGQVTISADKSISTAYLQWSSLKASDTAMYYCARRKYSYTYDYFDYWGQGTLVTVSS VL: QTVVTQEPSFSVSPGGTVTLTCGLSSGSVSTSYYPSWYQQTPGQAPRTLIYKTNTRSSGVPDRFSGSILGNKAALTITGAQADDESDYYCLLYMGPGISYVFGTGTKVTVL", "observedResult": 1.23}
{"binder": "Fab VH5-51_IGHD5-18*01>3_IGHJ4*01 G100K/G104T G24T/S28R/G35V & V3-4_IGLJ1*01 V91L/S96P S52Q (Fab, V domains shown, Fab made in E. coli: VH on CH1 with His6 and Flag tags (Plasmid A), VL on lambda CL (Plasmid E); also called H: KT TRV & L: LP S52Q) VH: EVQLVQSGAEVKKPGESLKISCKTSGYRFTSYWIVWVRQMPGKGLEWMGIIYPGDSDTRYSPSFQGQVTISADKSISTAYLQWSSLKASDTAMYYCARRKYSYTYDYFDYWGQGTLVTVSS VL: QTVVTQEPSFSVSPGGTVTLTCGLSSGSVSTSYYPSWYQQTPGQAPRTLIYQTNTRSSGVPDRFSGSILGNKAALTITGAQADDESDYYCLLYMGPGISYVFGTGTKVTVL", "observedResult": 0.96}

input: Param item = Fab VH5-51_IGHD5-18*01>3_IGHJ4*01 G100K/G104T G24T/S28R/G35V & V3-4_IGLJ1*01 V91L/S96P (Fab, V domains shown, Fab made in E. coli: VH on CH1 with His6 and Flag tags (Plasmid A), VL on lambda CL (Plasmid E); also called H: KT TRV & L: LP) VH: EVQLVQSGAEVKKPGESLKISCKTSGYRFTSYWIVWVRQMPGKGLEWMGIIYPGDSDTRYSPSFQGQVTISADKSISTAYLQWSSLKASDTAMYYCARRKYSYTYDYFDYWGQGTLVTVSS VL: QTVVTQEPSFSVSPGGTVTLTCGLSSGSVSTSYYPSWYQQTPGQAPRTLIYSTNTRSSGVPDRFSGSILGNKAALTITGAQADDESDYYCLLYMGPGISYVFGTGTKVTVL ; retrieve measured ELISA absorbance at 450 nm.
output: 1

input: // next record Fab VH5-51_IGHD5-18*01>3_IGHJ4*01 G100K/G104T G24T/S28R/G35V & V3-4_IGLJ1*01 V91L/S96P S52G (Fab, V domains shown, Fab made in E. coli: VH on CH1 with His6 and Flag tags (Plasmid A), VL on lambda CL (Plasmid E); also called H: KT TRV & L: LP S52G) VH: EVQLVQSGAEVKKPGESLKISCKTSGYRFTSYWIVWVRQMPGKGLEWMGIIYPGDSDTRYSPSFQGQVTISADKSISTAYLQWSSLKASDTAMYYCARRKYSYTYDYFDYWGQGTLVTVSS VL: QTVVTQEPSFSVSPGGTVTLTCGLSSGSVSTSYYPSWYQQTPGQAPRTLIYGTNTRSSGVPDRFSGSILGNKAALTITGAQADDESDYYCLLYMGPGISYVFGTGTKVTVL
output: 1.14

input: // next record Fab VH5-51_IGHD5-18*01>3_IGHJ4*01 G100K/G104T G24T/S28R/G35V & V3-4_IGLJ1*01 V91L/S96P S52M (Fab, V domains shown, Fab made in E. coli: VH on CH1 with His6 and Flag tags (Plasmid A), VL on lambda CL (Plasmid E); also called H: KT TRV & L: LP S52M) VH: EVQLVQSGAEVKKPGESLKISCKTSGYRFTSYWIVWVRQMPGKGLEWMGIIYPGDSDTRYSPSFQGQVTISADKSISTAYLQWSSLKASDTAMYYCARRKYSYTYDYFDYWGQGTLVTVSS VL: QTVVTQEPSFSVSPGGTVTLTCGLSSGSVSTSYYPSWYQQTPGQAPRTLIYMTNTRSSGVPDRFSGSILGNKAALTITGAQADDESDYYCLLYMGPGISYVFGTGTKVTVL
output: 1.01

input: // next record Fab VH5-51_IGHD5-18*01>3_IGHJ4*01 G100K/G104T G24T/S28R/G35V & V3-4_IGLJ1*01 V91L/S96P S52N (Fab, V domains shown, Fab made in E. coli: VH on CH1 with His6 and Flag tags (Plasmid A), VL on lambda CL (Plasmid E); also called H: KT TRV & L: LP S52N) VH: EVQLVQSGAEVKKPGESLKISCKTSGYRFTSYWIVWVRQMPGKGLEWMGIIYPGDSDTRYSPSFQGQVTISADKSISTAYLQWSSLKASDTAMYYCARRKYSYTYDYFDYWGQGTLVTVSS VL: QTVVTQEPSFSVSPGGTVTLTCGLSSGSVSTSYYPSWYQQTPGQAPRTLIYNTNTRSSGVPDRFSGSILGNKAALTITGAQADDESDYYCLLYMGPGISYVFGTGTKVTVL
output: 1.05

input: // next record Fab VH5-51_IGHD5-18*01>3_IGHJ4*01 & V3-4_IGLJ1*01 (Fab, V domains shown, Fab made in E. coli: VH on CH1 with His6 and Flag tags (Plasmid A), VL on lambda CL (Plasmid E); also called wildtype; parent) VH: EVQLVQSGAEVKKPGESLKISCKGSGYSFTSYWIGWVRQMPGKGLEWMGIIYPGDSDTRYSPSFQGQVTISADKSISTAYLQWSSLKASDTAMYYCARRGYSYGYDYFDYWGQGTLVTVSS VL: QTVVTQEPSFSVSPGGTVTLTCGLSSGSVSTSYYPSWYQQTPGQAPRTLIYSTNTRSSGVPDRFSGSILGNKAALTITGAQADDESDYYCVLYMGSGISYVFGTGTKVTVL
output: 0.17

input: // next record Fab VH5-51_IGHD5-18*01>3_IGHJ4*01 G100K/G104T G24T/S28R/G35V & V3-4_IGLJ1*01 V91L/S96P S52F (Fab, V domains shown, Fab made in E. coli: VH on CH1 with His6 and Flag tags (Plasmid A), VL on lambda CL (Plasmid E); also called H: KT TRV & L: LP S52F) VH: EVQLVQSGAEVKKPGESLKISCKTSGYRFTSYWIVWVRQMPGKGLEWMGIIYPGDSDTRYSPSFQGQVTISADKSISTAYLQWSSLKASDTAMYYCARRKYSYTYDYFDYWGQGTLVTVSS VL: QTVVTQEPSFSVSPGGTVTLTCGLSSGSVSTSYYPSWYQQTPGQAPRTLIYFTNTRSSGVPDRFSGSILGNKAALTITGAQADDESDYYCLLYMGPGISYVFGTGTKVTVL
output: 0.99

input: // next record Fab VH5-51_IGHD5-18*01>3_IGHJ4*01 G100K/G104T G24T/S28R/G35V & V3-4_IGLJ1*01 V91L/S96P S52L (Fab, V domains shown, Fab made in E. coli: VH on CH1 with His6 and Flag tags (Plasmid A), VL on lambda CL (Plasmid E); also called H: KT TRV & L: LP S52L) VH: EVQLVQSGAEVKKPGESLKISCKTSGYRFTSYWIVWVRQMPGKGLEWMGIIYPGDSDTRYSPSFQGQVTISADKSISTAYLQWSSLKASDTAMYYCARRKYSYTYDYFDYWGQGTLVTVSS VL: QTVVTQEPSFSVSPGGTVTLTCGLSSGSVSTSYYPSWYQQTPGQAPRTLIYLTNTRSSGVPDRFSGSILGNKAALTITGAQADDESDYYCLLYMGPGISYVFGTGTKVTVL
output: 1.02

input: // next record Fab VH5-51_IGHD5-18*01>3_IGHJ4*01 G100K/G104T G24T/S28R/G35V & V3-4_IGLJ1*01 (Fab, V domains shown, Fab made in E. coli: VH on CH1 with His6 and Flag tags (Plasmid A), VL on lambda CL (Plasmid E); also called H: KT TRV & L: wt) VH: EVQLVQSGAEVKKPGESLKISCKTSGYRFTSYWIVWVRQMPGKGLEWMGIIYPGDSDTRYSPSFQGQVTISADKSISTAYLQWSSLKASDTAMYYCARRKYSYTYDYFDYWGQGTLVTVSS VL: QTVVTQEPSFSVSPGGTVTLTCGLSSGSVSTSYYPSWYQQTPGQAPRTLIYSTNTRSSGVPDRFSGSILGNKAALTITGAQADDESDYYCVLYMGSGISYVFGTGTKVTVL
output: 0.45

meta.source: patent US20110318339A1
